For each record, write down the corresponding SPOT peptide array binding signal intensity.
- SYSTEM NAME: ScSla1-D3
- EXPERIMENT: SPOT peptide array binding signal intensity (averaged, normalized) (arbitrary units (background-subtracted, floor 0; scale differs between SH3 domains)); higher = stronger binding of the SH3 domain to the peptide

Inquiry: What value of SPOT peptide array binding signal intensity has been reported for the following binder? `RPKRRAPPPVPKKPS`
Reply text: 896

Inquiry: Next binder: `KTKQQKPAIPQKKSF`
Reply text: 7.25

Inquiry: Now this one: `LASNSPPVYPKRIRH`
Reply text: ≤ 0

Inquiry: Field entry: `AAAPKHAPPPVPNET`
Reply text: ≤ 0

Inquiry: Could you do the same for `RSRRSSFAYPQQVAI` , please?
Reply text: 20.2

Inquiry: Quick one: `PVLPPPRSPNRPTLS`
Reply text: 12.5

Inquiry: Next record, please: `PPIPNAPLSPAPAVP`
Reply text: 1.25

The reported measurements were obtained from the supplement of paper PMC4466140.
